Data provenance is ChEMBL document CHEMBL4823270.

tested on: CAKI-1; test: Growth inhibition of human CAKI-1 cells at 10 uM incubated for 24 hrs by MTT assay relative to control; format: functional; details: read-out: GI
Assignment: determine reported inhibition of growth at 10 µM for the given compounds.
Give bare numbers, in %.

Here are 3 compounds together with their reported answers.
CCn1c(SCCCCCC(=O)O)nnc1-c1ccncc1 | 1.06
Cn1c(SCCCCCC(=O)Nc2ccccc2N)nnc1-c1ccncc1 | 50.8
Cn1c(SCCCCCC(=O)O)nnc1-c1ccncc1 | 34.7

Each compound below has a reported value. Please supply its inhibition of growth at 10 µM.
1. C=CCn1c(SCCCCCC(=O)Nc2ccccc2N)nnc1-c1ccncc1
2. C=CCn1c(SCc2ccc(C(=O)NO)cc2)nnc1-c1ccncc1
3. Nc1ccccc1NC(=O)c1ccc(CSc2nnc(-c3ccncc3)n2-c2ccccc2)cc1

1: 95.4; 2: 50.2; 3: 66.9

Each compound below has a reported value. Please supply its inhibition of growth at 10 µM.
1. Cn1c(SCc2ccc(C(=O)NO)cc2)nnc1-c1ccncc1
2. CCn1c(SCc2ccc(C(=O)NO)cc2)nnc1-c1ccncc1
3. CCn1c(SCCCCCC(=O)Nc2ccccc2N)nnc1-c1ccncc1
4. O=C(NO)c1ccc(CSc2nnc(-c3ccncc3)n2-c2ccccc2)cc1
5. Cn1c(SCCCCCC(=O)NO)nnc1-c1ccncc1
6. C=CCn1c(SCCCCCC(=O)NO)nnc1-c1ccncc1

1: 48.2; 2: 9.34; 3: 8.91; 4: 61.9; 5: 98.1; 6: 8.62

Each compound below has a reported value. Please supply its inhibition of growth at 10 µM.
1. Nc1ccccc1NC(=O)CCCCCSc1nnc(-c2ccncc2)n1-c1ccccc1
2. CCn1c(SCCCCCC(=O)NO)nnc1-c1ccncc1

1: 1.65; 2: 2.06

---

biological target: Histone deacetylase 8 (Homo sapiens, UniProt Q9BY41); assay: Inhibition of human full-length recombinant C-terminal His-tagged HDAC8 expressed in baculovirus infected Sf9 insect cells preincubated for 5 mins followed by HDAC substrate addition and further incubated for 45 mins by fluorescence microplate reader assay
Sequence (Q9BY41 whole entry): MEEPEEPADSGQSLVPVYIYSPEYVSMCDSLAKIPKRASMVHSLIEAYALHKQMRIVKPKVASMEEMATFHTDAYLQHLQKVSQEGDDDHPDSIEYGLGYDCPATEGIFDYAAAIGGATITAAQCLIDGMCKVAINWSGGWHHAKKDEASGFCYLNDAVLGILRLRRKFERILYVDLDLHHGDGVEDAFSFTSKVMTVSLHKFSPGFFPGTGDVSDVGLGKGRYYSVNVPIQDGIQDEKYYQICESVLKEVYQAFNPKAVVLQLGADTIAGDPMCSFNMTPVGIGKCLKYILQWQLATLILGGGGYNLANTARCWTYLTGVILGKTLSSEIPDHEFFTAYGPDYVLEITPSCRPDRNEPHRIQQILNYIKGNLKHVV
Assignment: determine reported IC50 for the given compounds.

Here are 2 compounds together with their reported answers.
CCn1c(SCCCCCC(=O)O)nnc1-c1ccncc1 | > 300 µM
Nc1ccccc1NC(=O)CCCCCSc1nnc(-c2ccncc2)n1-c1ccccc1 | > 300 µM

Please examine the following record next.
Which IC50 reading was recorded for the compound `CCn1c(SCc2ccc(C(=O)NO)cc2)nnc1-c1ccncc1` ?
> 300 µM

---

molecular target: UniProt:O15379; experiment: Inhibition of human full-length recombinant HDAC3 preincubated for 5 mins followed by HDAC substrate addition and further incubated for 45 mins by fluorescence microplate reader assay
Sequence (O15379 whole entry): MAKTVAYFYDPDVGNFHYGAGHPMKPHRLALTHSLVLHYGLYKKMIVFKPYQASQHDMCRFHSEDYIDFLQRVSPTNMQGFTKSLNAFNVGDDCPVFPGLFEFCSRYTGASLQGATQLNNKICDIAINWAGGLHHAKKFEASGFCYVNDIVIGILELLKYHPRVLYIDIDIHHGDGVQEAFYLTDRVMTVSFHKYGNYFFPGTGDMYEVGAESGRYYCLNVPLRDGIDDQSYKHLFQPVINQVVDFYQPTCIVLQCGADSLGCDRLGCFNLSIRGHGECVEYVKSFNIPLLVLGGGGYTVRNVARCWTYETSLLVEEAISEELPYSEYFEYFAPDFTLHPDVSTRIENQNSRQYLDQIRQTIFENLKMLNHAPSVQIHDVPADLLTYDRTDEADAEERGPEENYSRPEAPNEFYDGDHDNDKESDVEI
Checkbox rule: IC50 lower than 70 µM = satisfied; IC50 not lower than 70 µM = not satisfied.

CCn1c(SCCCCCC(=O)NO)nnc1-c1ccncc1 | not satisfied
CCn1c(SCc2ccc(C(=O)Nc3ccccc3N)cc2)nnc1-c1ccncc1 | not satisfied
CCn1c(SCCCCCC(=O)O)nnc1-c1ccncc1 | not satisfied
Cn1c(SCc2ccc(C(=O)NO)cc2)nnc1-c1ccncc1 | satisfied
O=C(NO)c1ccc(CSc2nnc(-c3ccncc3)n2-c2ccccc2)cc1 | satisfied
Cn1c(SCCCCCC(=O)Nc2ccccc2N)nnc1-c1ccncc1 | not satisfied
C=CCn1c(SCCCCCC(=O)NO)nnc1-c1ccncc1 | not satisfied
Cn1c(SCCCCCC(=O)O)nnc1-c1ccncc1 | not satisfied

Does the reported IC50 of the following molecule sit strictly below 70 µM? `O=C(CCCCCSc1nnc(-c2ccncc2)n1-c1ccccc1)NO`
not satisfied

Does the reported IC50 of the following molecule sit strictly below 70 µM? `CCn1c(SCCCCCC(=O)Nc2ccccc2N)nnc1-c1ccncc1`
not satisfied

Does the reported IC50 of the following molecule sit strictly below 70 µM? `Cn1c(SCCCCCC(=O)NO)nnc1-c1ccncc1`
satisfied

Does the reported IC50 of the following molecule sit strictly below 70 µM? `O=C(O)CCCCCSc1nnc(-c2ccncc2)n1-c1ccccc1`
satisfied

Does the reported IC50 of the following molecule sit strictly below 70 µM? `Nc1ccccc1NC(=O)CCCCCSc1nnc(-c2ccncc2)n1-c1ccccc1`
not satisfied

---

biological target: Histone deacetylase 2 (Homo sapiens, UniProt Q92769); experiment: Inhibition of human full-length recombinant HDAC2 preincubated for 5 mins followed by HDAC substrate addition and further incubated for 45 mins by fluorescence microplate reader assay
Sequence (Q92769 whole entry): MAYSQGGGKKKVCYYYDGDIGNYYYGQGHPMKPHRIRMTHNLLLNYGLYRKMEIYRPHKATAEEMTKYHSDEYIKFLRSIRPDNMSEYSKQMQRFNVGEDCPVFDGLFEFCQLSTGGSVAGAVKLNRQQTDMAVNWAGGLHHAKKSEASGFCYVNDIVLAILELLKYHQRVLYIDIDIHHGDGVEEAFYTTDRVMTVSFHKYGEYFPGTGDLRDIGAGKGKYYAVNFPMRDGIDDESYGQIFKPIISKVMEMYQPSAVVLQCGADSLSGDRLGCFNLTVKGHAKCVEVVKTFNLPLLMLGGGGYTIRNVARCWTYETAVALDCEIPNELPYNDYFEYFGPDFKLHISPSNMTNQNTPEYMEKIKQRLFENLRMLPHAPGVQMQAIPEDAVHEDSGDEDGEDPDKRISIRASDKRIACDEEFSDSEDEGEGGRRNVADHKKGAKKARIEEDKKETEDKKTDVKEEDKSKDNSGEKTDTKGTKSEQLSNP
Checkbox rule: IC50 lower than 10 µM = Fulfilled; IC50 not lower than 10 µM = Not fulfilled.

Would you please look over these solved cases?
CCn1c(SCc2ccc(C(=O)NO)cc2)nnc1-c1ccncc1 | Not fulfilled
Cn1c(SCCCCCC(=O)O)nnc1-c1ccncc1 | Fulfilled
CCn1c(SCCCCCC(=O)Nc2ccccc2N)nnc1-c1ccncc1 | Not fulfilled

Query compound follows.
Does the reported IC50 of the following compound sit strictly below 10 µM? `Nc1ccccc1NC(=O)CCCCCSc1nnc(-c2ccncc2)n1-c1ccccc1`
Not fulfilled

---

target: Histone deacetylase 1 (Homo sapiens); assay: Inhibition of human full-length recombinant HDAC1 preincubated for 5 mins followed by HDAC substrate addition and further incubated for 45 mins by fluorescence microplate reader assay
Sequence (Q13547 whole entry): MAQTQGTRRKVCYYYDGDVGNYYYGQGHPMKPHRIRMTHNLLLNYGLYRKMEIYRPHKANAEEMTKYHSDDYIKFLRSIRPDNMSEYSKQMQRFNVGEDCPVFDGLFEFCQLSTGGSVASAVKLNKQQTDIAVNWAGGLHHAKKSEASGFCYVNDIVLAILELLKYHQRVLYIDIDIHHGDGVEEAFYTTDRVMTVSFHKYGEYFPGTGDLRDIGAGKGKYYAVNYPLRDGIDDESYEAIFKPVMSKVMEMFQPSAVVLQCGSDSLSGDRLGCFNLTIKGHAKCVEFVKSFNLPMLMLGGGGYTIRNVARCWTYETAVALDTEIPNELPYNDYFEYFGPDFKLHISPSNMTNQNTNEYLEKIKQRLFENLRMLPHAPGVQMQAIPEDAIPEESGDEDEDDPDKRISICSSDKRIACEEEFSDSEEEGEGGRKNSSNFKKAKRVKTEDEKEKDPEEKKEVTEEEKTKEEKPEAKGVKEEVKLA
Assignment: determine reported pIC50 for the given compounds.
Numbers only, as −log10 of the molar value.

C=CCn1c(SCc2ccc(C(=O)NO)cc2)nnc1-c1ccncc1 | 4.71

Each compound below has a reported value. Please supply its pIC50.
1. Cn1c(SCc2ccc(C(=O)NO)cc2)nnc1-c1ccncc1
2. Nc1ccccc1NC(=O)c1ccc(CSc2nnc(-c3ccncc3)n2-c2ccccc2)cc1
3. CCCC(CCC)C(=O)O
4. Nc1ccccc1NC(=O)CCCCCSc1nnc(-c2ccncc2)n1-c1ccccc1
5. Cn1c(SCCCCCC(=O)O)nnc1-c1ccncc1
6. CCn1c(SCCCCCC(=O)O)nnc1-c1ccncc1

4.85
4.66
4.07
3.59
5.05
3.73

---

test system: KG-1; assay: Growth inhibition of human KG-1 cells at 10 uM incubated for 24 hrs by MTT assay relative to control; format: functional; settings: KG-1, 24 h
Assignment: determine reported inhibition in vitro at 10 µM for the given compounds.

Here are 3 compounds together with their reported answers.
C=CCn1c(SCCCCCC(=O)NO)nnc1-c1ccncc1 | 5.91%
Cn1c(SCCCCCC(=O)O)nnc1-c1ccncc1 | 55.9%
CCn1c(SCc2ccc(C(=O)NO)cc2)nnc1-c1ccncc1 | 7.12%

Please examine the following record next.
Which inhibition in vitro at 10 µM reading was recorded for the compound `O=C(NO)c1ccc(CSc2nnc(-c3ccncc3)n2-c2ccccc2)cc1` ?
50.9%

---

target: Histone deacetylase 2 (Homo sapiens, UniProt Q92769); test: Inhibition of human full-length recombinant HDAC2 preincubated for 5 mins followed by HDAC substrate addition and further incubated for 45 mins by fluorescence microplate reader assay
Attribute measured: IC50 (µM)
Numbers only, in µM.

C=CCn1c(SCCCCCC(=O)O)nnc1-c1ccncc1 | 10.1

Each compound below has a reported value. Please supply its IC50.
1. O=C(NO)c1ccc(CSc2nnc(-c3ccncc3)n2-c2ccccc2)cc1
2. Cn1c(SCc2ccc(C(=O)NO)cc2)nnc1-c1ccncc1
3. CCn1c(SCCCCCC(=O)NO)nnc1-c1ccncc1
4. Cn1c(SCCCCCC(=O)Nc2ccccc2N)nnc1-c1ccncc1
5. C=CCn1c(SCc2ccc(C(=O)Nc3ccccc3N)cc2)nnc1-c1ccncc1
6. Cn1c(SCCCCCC(=O)NO)nnc1-c1ccncc1

[9.76, 4.35, 28.9, 14.4, 1.28, 0.09]

Each compound below has a reported value. Please supply its IC50.
1. CCn1c(SCc2ccc(C(=O)Nc3ccccc3N)cc2)nnc1-c1ccncc1
2. C=CCn1c(SCCCCCC(=O)NO)nnc1-c1ccncc1
3. O=C(CCCCCSc1nnc(-c2ccncc2)n1-c1ccccc1)NO
4. CCn1c(SCCCCCC(=O)O)nnc1-c1ccncc1

1: 40.1; 2: 11.7; 3: 32.4; 4: 26.4
